tested on: Pyrenophora teres; assay: Pyrenophora test (barley)/preventive; format: in vivo; conditions: 500 ppm of active ingredient, preventive, evaluated 7-9 days after inoculation, read-out: efficacy
pest or weed control at 500 ppm overview
Report as a plain number; the unit % is understood.

[
  {
    "compound": "CCC(=O)N(C(=O)C(C)C)c1cc(-c2c(-c3ccc(F)cc3)nn3c2CCOC3C)ccn1 (stereo not drawn)",
    "unitInfo": "%",
    "pest or weed control at 500 ppm": 100
  }
]

Returns the measured pest or weed control at 500 ppm for the input compound. Input: CCC(=O)N(C(=O)C1CC1)c1cc(-c2c(-c3ccc(F)cc3)nn3c2CCC3)ccn1 95

Reported pest or weed control at 500 ppm, compound CCC(=O)N(C(=O)CC)c1cc(-c2c(-c3ccc(F)cc3)nn3c2CCC3)ccn1 : ____ 95

Any idea what pest or weed control at 500 ppm was measured for CC(C)CC(=O)N(C(=O)CC(C)C)c1cc(-c2c(-c3ccc(F)cc3)nn3c2CCOC3C)ccn1 (stereo not drawn) ? 89

Which pest or weed control at 500 ppm reading was recorded for the compound CCOC(=O)N(C(=O)C1CC1)c1cc(-c2c(-c3ccc(F)cc3)nn3c2CCC3)ccn1 ? 95

Recorded pest or weed control at 500 ppm of CC(=O)N(C(C)=O)c1cc(-c2c(-c3ccccc3)nn3c2CCCC3)ccn1 , please. 100

----------
The entries below come with measured efficacy values attached.
test system: Plasmopara viticola; test: Plasmopara test (grapevines)/preventive; type: in vivo; conditions: 100 ppm of active ingredient, preventive, evaluated 6 days after inoculation
// units = %; emit number, no label

The following compounds have reported results that may help.
[
  {
    "compound": "CCC(=O)N(C(C)=O)c1cc(-c2c(-c3ccc(F)cc3)nn3c2CCC3)ccn1 [Example 5]",
    "reportedMeasurement": 94
  },
  {
    "compound": "CCC(=O)N(C(=O)CC)c1cc(-c2c(-c3ccc(F)cc3)nn3c2CCC3)ccn1 [Example 7]",
    "reportedMeasurement": 100
  },
  {
    "compound": "CCC(=O)N(C(=O)C1CC1)c1cc(-c2c(-c3ccc(F)cc3)nn3c2CCC3)ccn1 [Example 9]",
    "reportedMeasurement": 95
  },
  {
    "compound": "CCOC(=O)N(C(=O)C1CC1)c1cc(-c2c(-c3ccc(F)cc3)nn3c2CCC3)ccn1 [Example 11]",
    "reportedMeasurement": 90
  }
]

Record CC(=O)N(C(C)=O)c1cc(-c2c(-c3ccc(F)cc3)nn3c2CCCC3)ccn1 [Example 1] : what is its efficacy with Plasmopara viticola? 75

Request body: readout efficacy, system Plasmopara viticola, query CCC(=O)N(C(C)=O)c1cc(-c2c(-c3ccc(F)cc3)nn3c2CCC3C)ccn1 (stereo not drawn) [Example 6] . Return the value. 94

----------
Listed compounds paired with reported pest or weed control at 500 ppm
Test system: Pyrenophora teres
Test: Pyrenophora test (barley)/preventive
Format: in vivo
Settings: 500 ppm of active ingredient, preventive, evaluated 7-9 days after inoculation, read-out: efficacy
Protocol: Pyrenophora Test (Barley)/Preventive Solvent: 49 parts by weight of N,N-Dimethylformamide Emulsifier: 1 part by weight of Alkylarylpolyglycolether To produce a suitable preparation of active compound, 1 part by weight of active compound is mixed with the stated amounts of solvent and emulsifier, and the concentrate is diluted with water to the desired concentration. To test for preventive activity, young plants are sprayed with the preparation of active compound at the stated rate of application. […]
Units required after the number.

Use the examples below as a reference point.
[
  {
    "compound": "O=C(C1CC1)N(C(=O)C1CC1)c1cc(-c2c(-c3ccc(F)cc3)nn3c2CCC3)ccn1 [Example 12]",
    "targetOrTestSystem": "Pyrenophora teres",
    "pest or weed control at 500 ppm": "95%"
  },
  {
    "compound": "CC(=O)N(C(C)=O)c1cc(-c2c(-c3ccc(F)cc3)nn3c2CCOC3C)ccn1 (stereo not shown) [Example 10]",
    "targetOrTestSystem": "Pyrenophora teres",
    "pest or weed control at 500 ppm": "95%"
  },
  {
    "compound": "CCC(=O)N(C(C)=O)c1cc(-c2c(-c3ccc(F)cc3)nn3c2CCC3C)ccn1 (stereo not shown) [Example 6]",
    "targetOrTestSystem": "Pyrenophora teres",
    "pest or weed control at 500 ppm": "100%"
  }
]

Switching to the query record.
# returns recorded pest or weed control at 500 ppm (system: Pyrenophora teres) for CC(=O)N(C(C)=O)c1cc(-c2c(-c3ccsc3)nn3c2CCCC3)ccn1 [Example 4] 95%
